src = patent US11878970B2

// reported pIC50 per item
# System: PI3K-α (PIK3CA) wild-type (WT), p110α/p85α complex (Homo sapiens, UniProt P42336)
# Construct: Recombinant, catalytically active human full length PIK3KA Wild-type and H1047R mutant; 6×His (N); purchased EMD Millipore Sigma 14-602M
# Test method notes: PI3K-alpha kinase (PIK3CA) biochemical activity, ADP-Glo, wild-type
# Protocol conditions: Soy PI lipid substrate
# Description: PI3K-Alpha Kinase (PIK3CA) Activity, Wild-Type and H1047R Mutant and Determining IC50 Values for Inhibitors Recombinant, catalytically active human full length PIK3KA Wild-type and H1047R mutant were purchased as 1:1 complex of N-terminal 6×his tagged p110α (catalytic) and untagged p85α (regulatory subunit) from EMD Millipore Sigma (cat. no. 14-602M and 14-792M, respectively). […]
pIC50: −log10 of the molar value.

Molecule: Cc1cc(C(C)Nc2ccccc2C(=O)O)c2oc(-c3cccc4c3cnn4C)cc(=O)c2c1 (single isomer, unassigned)
pIC50: 5.30 to 6.00
--
Molecule: CC(Nc1ccc(Cl)nc1C(=O)O)c1cc(C(F)(F)F)cc2c(=O)cc(-c3cc(Cl)c4nn(C)cc4c3)oc12 (centres unmarked) [Example 173]
pIC50: < 5.00
--
Molecule: Cc1cc(C(C)Nc2ccccc2C(=O)O)c2oc(-c3ccc4cc(C)nn4c3)cc(=O)c2c1 (single isomer, unassigned)
pIC50: 5.30 to 6.00
--
Molecule: COc1ccc2cc(-c3cc(=O)c4cc(C)cc([C@@H](C)Nc5ccccc5C(=O)O)c4o3)ccc2n1
pIC50: 5.30 to 6.00
--
Molecule: Cc1cc(C(C)Nc2ccccc2C(=O)O)c2oc(-c3ccc4c(c3)ncn4C)cc(=O)c2c1 (single isomer, unassigned)
pIC50: 5.00 to 5.30

====

# System: PI3K-α (PIK3CA) H1047R mutant, p110α/p85α complex (Homo sapiens, UniProt P42336, H1047R)
# Construct: Recombinant, catalytically active human full length PIK3KA Wild-type and H1047R mutant; 6×His (N); purchased EMD Millipore Sigma 14-792M
# Sequence (P42336 whole entry H1047R): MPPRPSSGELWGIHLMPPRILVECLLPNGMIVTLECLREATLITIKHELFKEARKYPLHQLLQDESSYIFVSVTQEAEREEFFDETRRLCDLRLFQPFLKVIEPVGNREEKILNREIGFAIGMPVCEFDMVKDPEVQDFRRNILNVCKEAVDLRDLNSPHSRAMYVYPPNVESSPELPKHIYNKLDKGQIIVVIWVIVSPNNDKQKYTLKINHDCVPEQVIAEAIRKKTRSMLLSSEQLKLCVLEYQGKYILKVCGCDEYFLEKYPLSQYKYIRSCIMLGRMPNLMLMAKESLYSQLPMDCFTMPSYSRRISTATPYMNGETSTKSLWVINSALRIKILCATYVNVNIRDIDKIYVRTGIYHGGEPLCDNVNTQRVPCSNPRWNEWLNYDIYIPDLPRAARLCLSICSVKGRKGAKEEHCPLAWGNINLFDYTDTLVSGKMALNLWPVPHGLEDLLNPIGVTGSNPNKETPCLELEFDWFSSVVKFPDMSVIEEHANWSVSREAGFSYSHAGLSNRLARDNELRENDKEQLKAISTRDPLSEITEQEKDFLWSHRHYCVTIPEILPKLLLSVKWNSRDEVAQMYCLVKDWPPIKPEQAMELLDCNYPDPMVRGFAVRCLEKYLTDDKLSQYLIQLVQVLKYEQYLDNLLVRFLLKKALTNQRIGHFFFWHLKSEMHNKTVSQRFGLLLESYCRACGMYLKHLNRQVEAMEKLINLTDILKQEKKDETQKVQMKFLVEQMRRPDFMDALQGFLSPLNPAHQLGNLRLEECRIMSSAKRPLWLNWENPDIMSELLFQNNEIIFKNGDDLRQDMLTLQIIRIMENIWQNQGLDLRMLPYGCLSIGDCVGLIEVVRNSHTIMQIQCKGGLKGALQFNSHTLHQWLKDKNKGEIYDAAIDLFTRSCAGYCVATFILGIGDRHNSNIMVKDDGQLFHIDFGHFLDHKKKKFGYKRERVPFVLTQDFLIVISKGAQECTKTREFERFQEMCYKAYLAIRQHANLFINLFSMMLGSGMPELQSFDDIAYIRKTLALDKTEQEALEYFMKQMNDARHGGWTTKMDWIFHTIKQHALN
# Sequence (P27986 whole entry partner): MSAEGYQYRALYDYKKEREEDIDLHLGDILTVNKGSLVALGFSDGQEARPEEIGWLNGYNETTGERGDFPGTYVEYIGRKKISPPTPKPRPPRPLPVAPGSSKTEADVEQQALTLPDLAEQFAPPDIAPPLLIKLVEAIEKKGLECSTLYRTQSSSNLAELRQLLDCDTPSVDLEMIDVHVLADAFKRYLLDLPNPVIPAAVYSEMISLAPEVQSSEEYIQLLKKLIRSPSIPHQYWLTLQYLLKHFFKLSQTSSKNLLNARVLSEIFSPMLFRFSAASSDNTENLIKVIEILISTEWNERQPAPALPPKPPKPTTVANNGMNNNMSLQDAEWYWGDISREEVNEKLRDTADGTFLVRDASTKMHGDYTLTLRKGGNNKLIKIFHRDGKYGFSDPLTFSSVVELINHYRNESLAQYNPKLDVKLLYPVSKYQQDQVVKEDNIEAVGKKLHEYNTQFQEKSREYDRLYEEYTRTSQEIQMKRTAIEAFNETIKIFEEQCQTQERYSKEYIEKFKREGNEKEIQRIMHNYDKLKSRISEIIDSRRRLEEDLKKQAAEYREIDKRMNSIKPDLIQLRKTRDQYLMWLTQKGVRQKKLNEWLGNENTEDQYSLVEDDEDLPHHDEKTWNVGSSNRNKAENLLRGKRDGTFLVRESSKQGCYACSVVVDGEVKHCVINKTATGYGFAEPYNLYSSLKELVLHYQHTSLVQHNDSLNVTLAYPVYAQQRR
# Test method notes: PI3K-alpha kinase (PIK3CA) biochemical activity, ADP-Glo, H1047R mutant
# Protocol conditions: Soy PI lipid substrate

Compound: Cc1cc(C(C)Nc2ccccc2C(=O)O)c2oc(-c3ccc4nn(C)cc4c3)c(C)c(=O)c2c1 (single isomer, unassigned) [Example 91]
IC50: < 500 nM
--
Compound: Cc1cc(C(C)Nc2ccccc2C(=O)O)c2oc(-c3ccc4c(c3)ncn4C)cc(=O)c2c1 (single isomer, unassigned) [Example 166]
IC50: < 500 nM
--
Compound: Cc1cc(C(C)Nc2ccccc2C(=O)O)c2oc(-c3ccc4nc(C)cn4c3)cc(=O)c2c1 (single isomer, unassigned) [Example 38]
IC50: < 500 nM
--
Compound: Cc1cc([C@@H](C)Nc2ccc(C)nc2C(=O)O)c2oc(-c3ccc4nn(C)cc4c3)c(C)c(=O)c2c1 [Example 200]
IC50: < 500 nM
--
Compound: Cc1cc(C(C)Nc2ccccc2C(=O)O)c2oc(-c3ccc4cn(C)nc4c3)cc(=O)c2c1 (single isomer, unassigned) [Example 1]
IC50: < 500 nM
--
Compound: Cc1cc(C(C)Nc2ccc(Cl)nc2C(=O)O)c2oc(-c3ccc4cnn(C)c4c3)cc(=O)c2c1 (single isomer, unassigned) [Example 219]
IC50: 1000 to 5000 nM
--
Compound: Cc1cc(C(C)Nc2ccccc2C(=O)O)c2oc(-c3cnn4cccnc34)cc(=O)c2c1 (single isomer, unassigned) [Example 33]
IC50: > 10000 nM
--
Compound: Cc1cc(C(C)Nc2ccccc2C(=O)O)c2oc(-n3ncc4c(F)cccc43)cc(=O)c2c1 (single isomer, unassigned) [Example 86]
IC50: < 500 nM
--
Compound: Cc1cc([C@@H](C)Nc2ccc(F)cc2C(=O)O)c2oc(-c3ccc4nn(C)cc4c3)c(C)c(=O)c2c1 [Example 253]
IC50: < 500 nM
